assay: Volume of distribution at steady state in rat at 1.0 mg/kg, iv
Type: ADME, organism-based
Design: dose 1 mg/kg, route intravenous
assay_conditions: in vivo, read-out: Vdss
The reader will find reported Vd values listed item by item below.
readout_type: Vd

> print(dat)
                                smiles.repr  endpoint.result
1  CC(C)(C)c1ccc(-c2nc3c(N4CCN(Cc5c[nH]c(=O)[nH]c5=O)CC4)cccc3[nH]2)cc1         3.1 L/kg
2  CCn1cc(CN2CCN(c3cccc4[nH]c(-c5ccc(C(C)(C)C)cc5)nc34)CC2)c(=O)[nH]c1=O         4.8 L/kg

Source: ChEMBL document CHEMBL1157420
